These entries and their values trace back to ChEMBL document CHEMBL1201862.

Tested on: U-251
Experiment: NCI tumour cell line growth inhibition, 48 h
Active and inactive are the calls of the source. Cut-off read from the data, not from the text of the source: active = GI50 up to about 1.1 µM and inactive = higher.
quantity_name: GI50

Please review the following examples before continuing.
C[N+]1(CCC[N+]2(C)CC3C4C=CC(CC4)C3C2)CCOCC1 (stereo unspecified) : > 100 µM (inactive)
O=c1[nH]c(=O)n(CCOCP(=O)(O)O)nc1Br : > 100 µM (inactive)

Tell me the measured GI50 of Nc1nc(Cl)c(N)c(NCC2(CO)CC(O)C2)n1 (stereo unspecified) , please.
> 100 µM (inactive)

Please report the recorded GI50 for CSc1nnc(SC)nn1 .
20.6 µM (inactive)

What does the data say about its GI50? Entry: COC(=O)C1CCC(=O)N1CN(C(C)=O)c1ccccc1 (stereo unspecified)
> 100 µM (inactive)

Reported GI50, compound COC1C(OC(=S)Nc2ccccc2)c2ccccc2N1C(C)=O (stereo unspecified) : ____
> 100 µM (inactive)

Which GI50 is listed for Cc1c2c(n(CC(c3ccccc3)c3ccccc3)c1C)NN=C(C#N)S2(=O)=O ?
> 100 µM (inactive)

###

Test system: DMS-114
Assay: NCI tumour cell line growth inhibition, 48 h
Active and inactive are the calls of the source. No stated cut-off is given here; in the data, active = GI50 up to about 1.1 µM and inactive = higher.
List of GI50 values.

CC(C)CCS(=O)(=O)OCCCCOS(=O)(=O)CCC(C)C : > 100 µM (inactive)
CC1=C2[C@H](c3ccccc3)C3C=CC2(c2ccccc23)N(C(=O)C(c2ccccc2)c2ccccc2)C1=O (stereo not given in full) : > 100 µM (inactive)
COc1ccc(CNc2cnc3cc(N)ccc3n2)cc1 : > 100 µM (inactive)
Cc1c(C(=O)/C=C/c2ccc(N(C)C)cc2)c(=O)n(-c2ccccc2)n1C : > 100 µM (inactive)

# evaluate next
// returns reported GI50 for input Oc1cc(O)cc(/C=C/c2ccc(O)c(O)c2)c1 [PICEATANNOL]
5.66 µM (inactive)

###

System: M14
Assay: NCI tumour cell line growth inhibition, 48 h
Active and inactive are the calls of the source. Cut-off read from the data, not from the text of the source: active = GI50 up to about 1.1 µM and inactive = higher.
Examples of molecules with documented GI50 follow.

# example entries with known answers
COc1ccc(CNc2cnc3cc(N)ccc3n2)cc1 : > 100 µM (inactive)
C=CC1(C)CC(=O)C2(O)C(C)(O1)C(OC(C)=O)C(O)C1C(C)(C)CCC(O)C12C (stereo unspecified) : > 100 µM (inactive)
CCOc1ccccc1/C=C1\NC(=O)N(/C=C2\C(=O)Oc3ccccc3C2=O)C1=O : 51.4 µM (inactive)
COC(=O)C12OC3CO[Si](C(C)C)(C(C)C)O[Si](C(C)C)(C(C)C)OC3C1Oc1nc(=O)ccn12 (stereo unspecified) : 17.8 µM (inactive)
C[n+]1ccc(/C2=C3\C=CC(=N3)/C(c3cc[n+](C)cc3)=c3/cc/c([nH]3)=C(\c3cc[n+](C)cc3)C3=N/C(=C(/c4cc[n+](C)cc4)C4C=CC2N4)C=C3)cc1 : > 100 µM (inactive)

# input for lookup
API: value(readout=GI50, system=M14) for record Cc1ccc(S[C@@H](C)[C@@](O)(C(N)=O)c2ccccc2)cc1
> 100 µM (inactive)

###

Test system: SN12C
Assay: NCI tumour cell line growth inhibition, 48 h
Calls of active or inactive are those of the source. Cut-off read from the data, not from the text of the source: active = GI50 up to about 1.1 µM and inactive = higher.
Measured GI50 of individual entries

CSC1=Nc2ccccc2N=C(c2ccccc2)C1 : > 100 µM (inactive)
CC1=C2[C@H](c3ccccc3)C3C=CC2(c2ccccc23)N(C(=O)C(c2ccccc2)c2ccccc2)C1=O (stereo not given in full) : > 100 µM (inactive)
Cc1c(C(=O)CC(=O)C(=O)NC2C3CC4CC(C3)CC2C4)[n+]([O-])c2ccccc2[n+]1[O-] (stereo not given) : > 100 µM (inactive)
COc1ccc(OC(C)C(=O)O)c2c1CCCC2=O (stereo not given) : > 100 µM (inactive)
CC1=C(C(=O)Nc2ccccc2)C(c2cc(Cl)cc(Cl)c2)C(C(=O)Nc2ccccc2)=C(C)N1 : 10.8 µM (inactive)
COC(=O)CCCCC/C(=C\C(=O)C(Cl)(Cl)Cl)OC : 33.5 µM (inactive)
O=C(Nc1cc(Cl)ccc1Cl)C(=O)C(c1cnc2ccccc2n1)[N+](=O)[O-] (stereo not given) : > 100 µM (inactive)
COC(=O)C12OC3CO[Si](C(C)C)(C(C)C)O[Si](C(C)C)(C(C)C)OC3C1Oc1nc(=O)ccn12 (stereo not given) : 17.9 µM (inactive)
CC(=O)Oc1ccc(/C=C/C(=O)NCCOC(=O)/C=C/c2ccc(OC(C)=O)c(OC(C)=O)c2)cc1OC(C)=O : 26.1 µM (inactive)

# get_value(readout='GI50', item= c1ccc(OCc2nnc3n2N=C(c2ccccc2)CS3)cc1 )
> 100 µM (inactive)

###

# key: entry, value: GI50
System: HCC 2998
Assay: NCI tumour cell line growth inhibition, 48 h
Active and inactive are the calls of the source. No stated cut-off is given here; in the data, active = GI50 up to about 1.1 µM and inactive = higher.

For the molecule COC(=O)C1Cc2c([nH]c3ccccc23)C(c2ccccc2O)N1 (centres undefined) , what GI50 is on record?
60.1 µM (inactive)

For the molecule shown here, COc1ccc2c(c1)-c1nc(=S)n(CCCN(C)C)c3ccc([N+](=O)[O-])c(c13)N2 , give the reported GI50.
1.5 µM (inactive)

If you can, please state the reported GI50 value of [N-]=[N+]=Nc1c(-c2ccccc2)c(=O)n(-c2ccccc2)c2ccccc12 .
35.2 µM (inactive)

Which measured GI50 value corresponds to C=CCNC1=C2C[C@@H](C)C[C@@H](OC)[C@H](OC(=O)CCCCN)[C@H](C)/C=C(\C)[C@@H](OC(N)=O)[C@H](OC)/C=C\C=C(/C)C(=O)NC(=CC1=O)C2=O ?
4.27 µM (inactive)

###

System: HOP-62
Test: NCI tumour cell line growth inhibition, 48 h
Active and inactive are the calls of the source. Rule as the data show it: active = GI50 up to about 1.1 µM and inactive = higher.
Your response should consist of one outcome taken from 1 (active), -1 (inactive)

Use the examples below as a reference point.
C/N=c1\ss/c(=N\C(=S)N(C)C)n1C1CCCCC1 : -1
CN1C(=O)CC2CCC(=O)N2c2cccnc21 (stereo unspecified) : -1
CC1(C)N=C(N)N=C(N)N1c1cccc(OCc2cccc(N)c2)c1 : -1

Dear all, I need the recorded test outcome for COc1ccc2c(c1)[n+]([O-])c(-c1ccccc1Cl)c(N)[n+]2[O-] , thank you.
-1

# fetch the recorded call for CC(C)(C)OC(=O)N1N=NC2C3OC(CC3=O)C21 (stereo unspecified) here
-1

What outcome does the record of this test show for CCOc1ccccc1/C=C1\NC(=O)N(/C=C2\C(=O)Oc3ccccc3C2=O)C1=O ?
-1

Record lookup: outcome of this test for Nc1ncnc2c(C3OC(CO)C(O)C3O)scc12 (stereo unspecified) ?
1

Any idea what this test logged for C=CCOc1ccc(C2(c3ccc(OCC=C)cc3)C(=O)Nc3ccccc32)cc1 ?
-1

Per the records of this test, what outcome belongs to CC1(C)C2CCC1(C)C(N/C(=C(/C(Cl)=C(Cl)Cl)[N+](=O)[O-])n1nnc3ccccc31)C2 (stereo unspecified) ?
-1

Could you kindly confirm the outcome this assay logged for O=C1c2ccccc2N2OC3C4CCC(C4)C3C12c1ccccc1 (stereo unspecified) ?
-1

What classification did O=C(/C=C/c1ccccc1Cl)c1ccccc1Cl end up with in this test?
-1

###

Test system: NCI-H226
Assay: NCI tumour cell line growth inhibition, 48 h
The source made the active and inactive calls. No stated cut-off is given here; in the data, active = GI50 up to about 1.1 µM and inactive = higher.
Known GI50 of a selection of compounds

Example entries begin here.
c1ccc(-c2nnc(-c3nn(-c4ccccc4)c4nc5ccccc5nc34)o2)cc1 : 18.2 µM (inactive)
O=C1C=C2SC3C[C@@]24CC1[N+]1=c2c4c(c(O)c4c2=C(C=N4)CC1)N3 : 2.29 µM (inactive)
Cc1n[nH]c(=O)n1C1CCCC1 : > 100 µM (inactive)
CC[C@@H]1C[C@@H](O)[C@@H]2[C@H](O)[C@H](O)CN2C1 : > 100 µM (inactive)
N#CC[N+]1(Cc2ccccn2)CCCC1.O=S(=O)([O-])c1ccccc1 : > 100 µM (inactive)

For CN(C)/C(=N/C(=S)Nc1ccccc1)SCc1ccccc1 , what is its reported GI50?
36.1 µM (inactive)

Requested field: GI50. Item: C/C(=N/NC(=S)N1CCCCCC1)c1cccc(/C(C)=N\NC(=S)N2CCCCCC2)n1
1.75 µM (inactive)

Which GI50 reading was recorded for the compound Cc1cc2c(c(O)c1-c1c(C)cc(O)c3c1C(=O)C=CC3=O)C(=O)C=CC2=O ?
20.2 µM (inactive)

# lookup: GI50 of Cc1c(C(=O)CC(=O)C(=O)NC2C3CC4CC(C3)CC2C4)[n+]([O-])c2ccccc2[n+]1[O-] (stereo not given)
> 100 µM (inactive)

# GI50 lookup, item Cc1ccc(-c2cc(=S)n(-c3ccccc3)c3[nH]c(=S)n(-c4ccccc4)c(=N)c23)cc1
> 100 µM (inactive)

###

System: M19-MEL
Assay: NCI tumour cell line growth inhibition, 48 h
Activity calls are given as the source filed them. Rule as the data show it: active = GI50 up to about 1.1 µM and inactive = higher. Starred links: 1 amine or outer side, 2 acyl side, 3 side chain; linkers in the order of their positions; H or OH if unused. Positions of bridges follow the written chain, without caps; N, C: chain ends. Non-standard residues stand in square brackets, D forms with d. Residues, ends and D or L forms follow the SMILES beside them. Chains are numbered I, II in the order given. Actinocin(1to9) = Cc1c2oc3c(C)ccc(C(=O)[*:2])c3nc-2c(C(=O)[*:1])c(N)c1=O; aThr = C[C@H](O)[C@H](N)C(=O)O; NMeV = CN[C@H](C(=O)O)C(C)C; Sar = CNCC(=O)O
Your reply should match one of these outcome classes. T for active, F for inactive

Below are worked cases with known answers.
CC(C)CCS(=O)(=O)OCCCCOS(=O)(=O)CCC(C)C : F
N#CC1(C#N)C(c2ccc(C3C(C#N)(C#N)C3(C#N)C#N)cc2)C1(C#N)C#N : F
COc1ccc2c(c1)[n+]([O-])c(-c1ccccc1Cl)c(N)[n+]2[O-] : F
COC1(OC)C2(Cl)C3=CCCC=C3C1(Cl)C(Cl)=C2Cl : F

For this compound, state the assay outcome: Cc1c2oc3c(C)ccc(C(=O)N[C@@H]4C(=O)N[C@H](C(C)C)C(=O)N5CCC[C@H]5C(=O)N(C)CC(=O)N(C)[C@@H](C(C)C)C(=O)O[C@H]4C)c3nc-2c(C(=O)N[C@@H]2C(=O)N[C@H](C(C)C)C(=O)N3CCC[C@H]3C(=O)N(C)CC(=O)N(C)[C@@H](C(C)C)C(=O)O[C@H]2C)c(N)c1=O (I: [aThr][dV]P[Sar][NMeV] / II: [aThr][dV]P[Sar][NMeV]; ester I:1-I:C, II:1-II:C; linker I:N-II:N via Actinocin(1to9))
T

Any idea what this test logged for Oc1cc(O)cc(/C=C/c2ccc(O)c(O)c2)c1 ?
F
